Reference source for all entries: patent US11771086B2

tested on: Laodelphax striatella; assay: Reference Test Example 18 Pest control test of Laodelphax striatella (wheat seedling root treatment); type: in vivo; conditions: wheat seedling roots treated; four days after release; 20 μg/seedling
Observation Type: Laodelphax striatella (Reference Test Example 18), mortality of larvae (%)
Answers are plain numbers, in %.

The cases that follow already have their Laodelphax striatella (Reference Test Example 18), mortality of larvae on record.
{"columns": ["Molecule", "Number"],
 "data": [
  ["O=C(CBr)N=c1ccccn1Cc1ccc(Cl)nc1", 100],
  ["O=C(N=c1ccccn1Cc1cnc(Cl)nc1)C(F)F", 100],
  ["O=C(N=c1ccccn1Cc1cnc(Cl)nc1)C(F)(F)F", 100]
]}

Batch: Laodelphax striatella (Reference Test Example 18), mortality of larvae for all items listed.
1. N#Cc1cccn(Cc2ccc(Cl)nc2)c1=NC(=O)C(F)(F)F
2. Fc1ccc(Cn2ccccc2=NC(=S)C(F)(F)F)cn1
3. O=C(N=c1ccccn1Cc1cnc(Cl)nc1)C(F)(F)Cl
4. Fc1cc(Cn2ccccc2=NC(=S)C(F)(F)F)cnc1Cl
5. FC(F)(F)C(=S)N=c1ccccn1Cc1ccc(Br)nc1
6. FC(F)(F)C(=S)/N=c1\ccccn1Cc1ccc(Cl)nc1

[100, 80, 100, 100, 100, 100]

====

tested on: Plutella xylostella; assay: Reference Test Example 1 Pest control test of Plutella xylostella (foliar treatment, single agent); type: in vivo; set-up: concentration or dose not given beside the values; settings: foliar treatment, single agent
Observation Type: Plutella xylostella (Reference Test Example 1), mortality of larvae (%)
Give bare numbers, in %.

{"columns": ["Compound", "Number"],
 "data": [
  ["O=C(N=c1ccccn1Cc1cccnc1)C(F)(F)F [Compound P-226]", 60],
  ["O=C(N=c1ccccn1Cc1ccc(C(F)(F)F)nc1)C(F)(F)F [Compound P-228]", 30],
  ["CSCCN=C(N=c1ccccn1Cc1ccc(Cl)nc1)C(F)(F)F [Compound 1-150]", 100],
  ["O=C(N=c1ccccn1Cc1ccc(F)nc1)C(F)(F)Cl [Compound 3-4]", 100],
  ["O=C(N=c1ccccn1Cc1cnc(Cl)nc1)C(F)(F)F [Compound P-243]", 100]
]}

Batch: Plutella xylostella (Reference Test Example 1), mortality of larvae for all items listed.
1. O=C(N=c1ccc(F)cn1Cc1ccc(Cl)nc1)C(F)(F)F [Compound P-216]
2. O=C(N=c1ccccn1Cc1ccc(Cl)nc1)C(Cl)Cl [Compound P-234]
3. C/N=C(/N=c1\ccccn1Cc1ccc(Cl)nc1)C(F)(F)F [Compound 1-42]
4. N#Cc1cccn(Cc2ccc(Cl)nc2)c1=NC(=O)C(F)(F)F [Compound 102-2]

[100, 100, 100, 10]

Batch: Plutella xylostella (Reference Test Example 1), mortality of larvae for all items listed.
1. FC(F)(F)C(F)(F)C(=S)N=c1ccccn1Cc1ccc(Cl)nc1 [Compound 1-23]
2. O=C(N=c1ccc(Cl)cn1Cc1ccc(Cl)nc1)C(F)(F)F [Compound P-215]
3. O=C(N=c1ccccn1Cc1cnc(Cl)s1)C(F)(F)F [Compound P-213]
4. O=C(N=c1ccccn1Cc1ccc(Cl)nc1)C(F)(F)Cl [Compound P-239]
5. O=C(N=c1ccccn1Cc1cnc(Cl)c(F)c1)C(F)(F)F [Compound P-227]

100
100
100
100
100

====

Kindly supply the reported Aphis gossypii (Reference Test Example 3), mortality of larvae values for the records listed here.
system: Aphis gossypii; experiment: Reference Test Example 3 Pest control test of Aphis gossypii (foliar treatment, single agent); assay type: in vivo; design: concentration or dose not given beside the values; details: foliar treatment, single agent
A complete answer gives the number and then names the unit.

Batch: Aphis gossypii (Reference Test Example 3), mortality of larvae for all items listed.
1. Cc1ccc(=NC(=O)C(F)(F)F)n(Cc2ccc(Cl)nc2)c1
2. O=C(N=c1ccccn1Cc1ccc(Cl)nc1)C(F)(F)C(F)(F)F
3. O=C(N=c1ccccn1Cc1cnc(Cl)nc1)C(F)(F)F

1: 75%; 2: 100%; 3: 100%

Batch: Aphis gossypii (Reference Test Example 3), mortality of larvae for all items listed.
1. O=C(N=c1ccccn1Cc1cnc(Cl)c(F)c1)C(F)(F)F
2. C/N=C(/N=c1\ccccn1Cc1ccc(Cl)nc1)C(F)(F)F
3. O=C(N=c1ccc(Cl)cn1Cc1cnc(Cl)s1)C(F)(F)F
4. O=C(CCl)N=c1ccccn1Cc1ccc(Cl)nc1
5. O=C(N=c1ccccn1Cc1ccc(Cl)nc1)C(Cl)Cl
6. O=C(N=c1ccccn1Cc1ccc(Cl)nc1)C(F)(F)Cl
7. O=C(N=c1ccc(F)cn1Cc1cnc(Cl)s1)C(F)(F)F
8. O=C(N=c1ccc(Cl)cn1Cc1ccc(Cl)nc1)C(F)(F)F

["100%", "100%", "60%", "100%", "100%", "100%", "85%", "80%"]

====

test system: Rhizoctonia solani; experiment: Test Example 12 Test of control of rice sheath blight (Rhizoctonia solani); format: in vivo; conditions: single agent 5 ppm; foliar spray; six days after inoculation
Kindly supply the reported Preventive value (Sheath blight test, lesion height) values for the records listed here.
Numbers only.

{"columns": ["Compound", "Target Or Test System", "Number"],
 "data": [
  ["CNC(=O)/C(=N/OC)c1ccccc1CO/N=C(C)/C(=N/OC)C(/C)=N/OC", "Rhizoctonia solani", 72],
  ["O=C(Nc1ccccc1)N(Cc1ccc(Cl)cc1)C1CCCC1", "Rhizoctonia solani", 69]
]}

Batch: Preventive value (Sheath blight test, lesion height) for all items listed.
1. CO/C=C(/C(=O)OC)c1ccccc1Oc1cc(Oc2ccccc2C#N)ncn1
2. Cc1nc(C(F)(F)F)c(C(=O)Nc2c(Br)cc(OC(F)(F)F)cc2Br)s1 [Thifluzamide]
3. OCC1=C[C@H](N[C@H]2C[C@H](CO)[C@@H](O[C@@H]3O[C@H](CO)[C@@H](O)[C@H](O)[C@H]3O)[C@H](O)[C@H]2O)[C@H](O)[C@@H](O)[C@@H]1O
4. Cc1nn(C)c(Cl)c1C(=O)Nc1cccc2c1C(C)OC2(C)C (stereo not shown)
5. C[Si](C)(C)CC(O)(Cn1cncn1)c1ccc(F)cc1 (stereo not shown)

1. 95
2. 92
3. 32
4. 77
5. 5

====

test system: Laodelphax striatella; experiment: Reference Test Example 18 Pest control test of Laodelphax striatella (wheat seedling root treatment); type: in vivo; conditions: wheat seedling roots treated; four days after release; 20 μg/seedling
Kindly supply the reported Laodelphax striatella (Reference Test Example 18), mortality of larvae values for the records listed here.
Answers are plain numbers, in %.

{"columns": ["Molecule", "Number"],
 "data": [
  ["O=C(N=c1ccccn1Cc1ccc(Cl)nc1)C(Cl)(Cl)Cl", 75]
]}

Batch: Laodelphax striatella (Reference Test Example 18), mortality of larvae for all items listed.
1. O=C(N=c1ccccn1Cc1ccc(F)nc1)C(F)(F)Cl
2. O=C(N=c1ccccn1Cc1ccc(Cl)nc1)C(Cl)Cl
3. O=C(N=c1ccccn1Cc1cnc(Cl)c(F)c1)C(F)(F)F
4. O=C(N=c1ccccn1Cc1ccc(C(F)(F)F)nc1)C(F)(F)F
5. C/N=C(/N=c1\ccccn1Cc1ccc(Cl)nc1)C(F)(F)F
6. O=C(N=c1ccccn1Cc1ccc(Cl)nc1)C(F)(F)F
7. O=C(N=c1ccccn1Cc1ccc(Cl)nc1)C(Cl)Br (stereo not shown)

1: 100; 2: 100; 3: 100; 4: 100; 5: 100; 6: 100; 7: 100

====

test system: Plutella xylostella; experiment: Reference Test Example 1 Pest control test of Plutella xylostella (foliar treatment, single agent); assay type: in vivo; set-up: concentration or dose not given beside the values; conditions: foliar treatment, single agent
Observation Type: Plutella xylostella (Reference Test Example 1), mortality of larvae (%)
Answers are plain numbers, in %.

The cases that follow already have their Plutella xylostella (Reference Test Example 1), mortality of larvae on record.
{"columns": ["Cpd Smiles", "Units Symbol", "Number"],
 "data": [
  ["O=C(N=c1ccccn1Cc1cnc(Cl)c(Cl)c1)C(F)(F)F", "%", 100],
  ["O=C(N=c1ccccn1Cc1ccc(Cl)nc1)C(F)(F)F", "%", 100],
  ["FC(F)(F)C(=S)N=c1ccccn1Cc1ccc(Br)nc1", "%", 100],
  ["O=C(/N=c1\\ccccn1Cc1ccc(F)nc1)C(F)F", "%", 50]
]}

# context switch: different molecule, same Plutella xylostella (Reference Test Example 1), mortality of larvae
So what does the record say about Plutella xylostella (Reference Test Example 1), mortality of larvae for "O=C(N=c1ccc(F)cn1Cc1cnc(Cl)s1)C(F)(F)F" ?
80

====

system: Aphis gossypii; test: Reference Test Example 3 Pest control test of Aphis gossypii (foliar treatment, single agent); assay type: in vivo; design: concentration or dose not given beside the values; details: foliar treatment, single agent
Observation Type: Aphis gossypii (Reference Test Example 3), mortality of larvae (%)
Numbers only, in %.

The cases that follow already have their Aphis gossypii (Reference Test Example 3), mortality of larvae on record.
{"columns": ["Molecule", "Number"],
 "data": [
  ["O=C(N=c1cc(F)ccn1Cc1ccc(Cl)nc1)C(F)(F)F [Compound P-232]", 80],
  ["O=C(N=c1ccccn1Cc1cnc(Cl)s1)C(F)(F)F [Compound P-213]", 100],
  ["O=C(N=c1ccccn1Cc1cnc(Cl)c(Cl)c1)C(F)(F)F [Compound P-230]", 100],
  ["O=C(N=c1ccccn1Cc1ccc(Cl)nc1)C(F)F [Compound P-238]", 100]
]}

Batch: Aphis gossypii (Reference Test Example 3), mortality of larvae for all items listed.
1. O=C(N=c1c(F)cccn1Cc1ccc(Cl)nc1)C(F)(F)F [Compound P-233]
2. Fc1ccc(Cn2ccccc2=NC(=S)C(F)(F)F)cn1 [Compound 3-20]
3. FC(F)(F)C(=S)/N=c1\ccccn1Cc1ccc(Cl)nc1 [Compound 1-20]
4. O=C(N=c1ccccn1Cc1ccc(Br)nc1)C(F)(F)C(F)(F)F [Compound 4-5]
5. FC(F)(F)C(=S)N=c1ccccn1Cc1ccc(Br)nc1 [Compound 4-20]
6. O=C(N=c1ccccn1Cc1ccc(F)nc1)C(F)(F)Cl [Compound 3-4]
7. O=C(N=c1ccccn1Cc1ccc(Br)nc1)C(F)(F)F [Compound P-231]
8. O=C(/N=c1\ccccn1Cc1ccc(F)nc1)C(F)F [Compound 3-3]

[100, 100, 100, 100, 100, 100, 100, 100]

Batch: Aphis gossypii (Reference Test Example 3), mortality of larvae for all items listed.
1. FC(F)C(=S)N=c1ccccn1Cc1ccc(Cl)nc1 [Compound 1-21]
2. O=C(N=c1ccccn1Cc1cnc(Cl)nc1)C(F)(F)Cl [Compound 6-4]

100
100

Batch: Aphis gossypii (Reference Test Example 3), mortality of larvae for all items listed.
1. O=C(N=c1ccccn1Cc1ccc(F)nc1)C(F)(F)F [Compound P-229]
2. O=C(N=c1ccccn1Cc1ccc(Cl)nc1)C(Cl)(Cl)Cl [Compound P-235]
3. Cc1ccn(Cc2ccc(Cl)nc2)c(=NC(=O)C(F)(F)F)c1 [Compound P-222]
4. CSCCN=C(N=c1ccccn1Cc1ccc(Cl)nc1)C(F)(F)F [Compound 1-150]
5. O=C(N=c1ccccn1Cc1ccc(Cl)nc1)C(Br)Br [Compound P-241]
6. O=C(N=c1ccccn1Cc1ccc(Cl)nc1)C(Cl)Br (stereo not shown) [Compound P-240]
7. O=C(N=c1ccccn1Cc1ccc(C(F)(F)F)nc1)C(F)(F)F [Compound P-228]
8. O=C(N=c1ccc(F)cn1Cc1ccc(Cl)nc1)C(F)(F)F [Compound P-216]

[100, 95, 100, 100, 100, 100, 95, 95]

Batch: Aphis gossypii (Reference Test Example 3), mortality of larvae for all items listed.
1. O=C(CBr)N=c1ccccn1Cc1ccc(Cl)nc1 [Compound P-244]
2. O=C(N=c1ccccn1Cc1ccc(Cl)nc1)C(F)(F)F [Compound P-212]
3. O=C(N=c1ccccn1Cc1cccnc1)C(F)(F)F [Compound P-226]
4. O=C(N=c1ccccn1Cc1ccc(F)nc1)C(F)(F)C(F)(F)F [Compound 3-5]
5. O=C(N=c1ccccn1Cc1ccc(Cl)cc1)C(F)(F)F [Compound P-225]

1: 100; 2: 100; 3: 100; 4: 55; 5: 90

So what does the record say about Aphis gossypii (Reference Test Example 3), mortality of larvae for N#Cc1cccn(Cc2ccc(Cl)nc2)c1=NC(=O)C(F)(F)F [Compound 102-2] ?
100
